test: NCI Yeast Anticancer Drug Screen. Data for the rad50 strain (AID 155); conditions: S. cerevisiae rad50 strain growth inhibition; at 50.0 µM
About 79,000 compounds went through this panel and 15% of them were active in at least one assay; those are over-represented in the sample as a whole. Calls of active or inactive are those of the source. No stated cut-off is given here; in the data, active means growth inhibition above about 70%; inactive means the rest.
Outcome codes: active, inactive

COMPOUND	ANSWER_LABEL
C#CCN1CCCC1	inactive
COc1cc2[nH]c3c(c2cc1OC)CCN[C@]31CC[C@]2(CC3c4c(cc(OC)c(O)c42)CCN3C)C[C@H]1OC (stereo partly specified)	inactive
Nc1ccccc1/C=C(\C(=O)O)c1ccccc1	inactive
CC(C)OC(=S)SCC(=O)c1ccc(-c2ccccc2)cc1	inactive
O=C(C[n+]1cccc(Cl)c1)c1cccc([N+](=O)[O-])c1	inactive
Cn1c(=O)c2c(nc(Cl)n2Cc2ccccc2)n(C)c1=O	inactive
Cc1oc([N+](=O)[O-])cc1C(=O)O	inactive
[N-]=[N+]=NC(c1ccccc1)S(=O)c1ccccc1 (stereo unspecified)	active
Cc1ccc(S(=O)(=O)N(CCO)CC(C)O)cc1 (stereo unspecified)	inactive
CCN(CC)c1ccc(-c2c3ccccc3nc3ccccc23)cc1	inactive
c1ccc2c(c1)CCC/C2=N\OCC1CO1 (stereo unspecified)	inactive
O=C(O)C1C2OC3C(OC(=O)C31)C2Cl (stereo unspecified)	inactive
CCC1SC(N)=NC1c1ccccc1 (stereo unspecified)	inactive
O=C1c2cc3ccccc3cc2NC(O)c2cccn21 (stereo unspecified)	inactive
CC1CN=C(c2c(O)ccc3ccccc23)S1 (stereo unspecified)	inactive
COC(=O)c1c(C(=O)Nc2ccccc2)c(-c2ccccc2)n(NC(N)=O)c1C	inactive
O=C1NCC/C1=C\c1ccc(Cl)c(Cl)c1	inactive
C=CCCCCCCCCCO	inactive
O=S(=O)(Nc1cccc(Br)c1)N1CCCCC1	inactive
O=C1Cc2nc3ccccc3nc2CC(=O)c2ccccc21	inactive
CC1=C2CC[C@@]3(C)C(=CCC3O)C2(C)CCC1=O (stereo partly specified)	inactive
